- System: methicillin-sensitive Staphylococcus (MSSA) MSSA(ii)
- Protocol Details: organism not typed
- Experimental Context: methicillin-sensitive Staphylococcus (ii)
No end group written: not given here.
Metric: MIC MSSA(ii) (µg/mL)

GRLKRMGERLKRKIQKWIRW-NH2 [SRP-15]	16
KLIFLHRLKRELRKRLKRKLR-NH2 [SRP-13]	16
KNLRRIIRKIIHIIKKYG-NH2 [Ovispirin-1, reference compound]	16
LIFLHRLKRMRKRLKRKLRL-NH2 [SRP-12]	16
KLIFLRELRRLRKRLKRKLR-NH2 [SRP-16]	16
RLKRMRKRLKRKLRLWHRKRYK-NH2 [SRP-8]	32

This collection of values is drawn from patent US8470765B2.
